- measured_on: T1, HIV-1 integrase IN1-212 (C-terminal deletion) (HIV-1, UniProt P04585 P04585:1148-1359)
- T1 chain: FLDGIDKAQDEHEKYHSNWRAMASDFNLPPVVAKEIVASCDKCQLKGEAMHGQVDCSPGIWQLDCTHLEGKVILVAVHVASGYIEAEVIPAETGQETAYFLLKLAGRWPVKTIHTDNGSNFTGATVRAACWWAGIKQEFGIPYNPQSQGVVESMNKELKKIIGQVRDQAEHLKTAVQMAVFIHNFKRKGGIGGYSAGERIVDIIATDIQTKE
- assay: inhibition; disintegration assay, Mn2+, 30 C
- experimental_conditions: intramolecular G4
pIC50: −log10 of the molar value.

# binder, pIC50
data = [
    ("GTGGTGGGTGGGTGGGT (structured_DNA, PS at the terminal 5' and 3' internucleoside linkages) [T30177 (AR177)]", 6.22),
]
